- system: human GITR on 293F‐hGITR cells (Homo sapiens (Human)., UniProt Q9Y5U5-1)
- Sequence (Q9Y5U5 26-241): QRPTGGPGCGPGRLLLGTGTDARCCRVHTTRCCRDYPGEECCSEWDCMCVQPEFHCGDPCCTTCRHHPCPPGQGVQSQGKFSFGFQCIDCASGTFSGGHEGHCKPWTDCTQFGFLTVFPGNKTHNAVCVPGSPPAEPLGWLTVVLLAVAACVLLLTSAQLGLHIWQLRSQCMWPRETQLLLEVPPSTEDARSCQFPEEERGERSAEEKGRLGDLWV
- test: cell-based or functional assay
NF‐ĸB luciferase reporter assay, No crosslinking, Top ratio values, listed per item
Answer with a number only, understood to be in fold.

Consider the binder shown here: Tab9H6v3 (antibody, V domains shown, heavy chain variable region of clone 9H6v3 (AMGEN INC.); light chain variable region of clone 9H6v3 (AMGEN INC.)) VH: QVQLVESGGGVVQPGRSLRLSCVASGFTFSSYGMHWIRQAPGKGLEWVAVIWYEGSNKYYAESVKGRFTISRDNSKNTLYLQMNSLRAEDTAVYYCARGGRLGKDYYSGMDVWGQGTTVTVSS VL: DIQMTQSPSSLSASVGDRVTITCRASQGIRNDLGWYQQKPGKAPKRLIYATSSLQSGVPSRFSGSGSGTEFTLTISSLQPEDFATYYCLQHNTYPWTFGQGTKVEIK What is its recorded NF‐ĸB luciferase reporter assay, No crosslinking, Top ratio? 11

Next binder up: mAb076 (antibody, V domains shown, as the VH of m15; as the VL of m15; Human-murine chimeric antibody from H2L2 mice: human variable regions, rat constant regions; source: hybridoma cell culture supernatant, purified (Protein A)) VH: QVQLVESGGGVVQPGRSLRLSCAASGFTFSSYGMHWVRQAPGKGLEWVAVIWYETSNKYYADSVKGRFTISRDNSKNTLYLQMNSLRAEDTAVYYCARYGASSGWYWYFDLWGRGTLVTVSS VL: DIQLTQSPSFLSASVGDRVTITCRASQGISSYLAWYQQKPGKAPKLLIYAASTLQSGVPSRFSGSGSGTEFTLTISSLQPEDFATYCCQQLNSYPFTFGQGTKLEIK 14

Next binder up: mAb064 (antibody, V domains shown, as the VH of m13; as the VL of m13; Human-murine chimeric antibody from H2L2 mice: human variable regions, rat constant regions; source: hybridoma cell culture supernatant, purified (Protein A)) VH: QVQLVESGGGVVQPGRSLRLSCAASGFTFSSYGMHWVRQAPGKGLEWVAVIWYETSNKYYADSVKGRFTISRDNSKNTLYLQMNNLRAEDTAVYYCARYGGNSGWYWYFDLWGRGTLVTVSS VL: DIQLTQSPSFLSASVGDRVTITCRASQGISSFLAWYQQKPGTAPKLLIYAASTLQSGVPSRFSGSGSGTEFTLTISSLQPEDFATYCCQQLNSYPFTFGQGTKLEIK 10
